Recorded composite z-score values for a group of compounds are listed next.
method notes: binders of probe aFST on microarray, primary screen, stem cell growth factor project, biochemical, small-molecule microarray, fluorescence 635/667 (AID 1086);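 further: score merges 667 nm fluorescence with signal-to-noise of each printed compound spot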
condition: higher = more signal
The answer should be written as a number, with no unit following it.

compound	composite z-score
O=C(OCCF)C1=CCC(c2cccc(Cl)c2)O1 (stereo unspecified)	0.5

For record [N-]=[N+]=NCc1ccccc1[C@H]1OC(c2ccc(OCCCO)cc2)=N[C@@]1(CCS(=O)(=O)c1ccccc1)C(=O)N1CCOCC1 the listed composite z-score is 1.86

For record CCCCC(O)C1C=CC2C(=O)N(C3CCCCC3)C(=O)C2N1Nc1ccc(OC)cc1 (stereo unspecified) the listed composite z-score is 0.583

For record COC(=O)c1c(CC[C@@H](CO)NC(=O)N[C@@H](Cc2ccccc2)Cn2cc(C3(O)CCCCC3)nn2)oc(C(C)=O)c1C(=O)OC the listed composite z-score is 0.439

* * *

test target: Streptavidin (Streptomyces avidinii)
method notes: streptavidin binders on small-molecule microarray, primary screen, artefact control for SMM compound annotation, biophysical, 635/667 nm fluorescence (AID 1147);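 further: signal reflects streptavidin binding to arrayed compounds as a control protein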
condition: streptavidin binding, higher = more signal
Recorded composite z-score values for a group of compounds are listed next.
The answer should be written as a number, with no unit following it.

Worked cases, answers included:
compound	readout type	recorded number
COCCOC(=O)N1C(=O)[C@@]2(c3cc(C#CCC(C(=O)OC)C(=O)OC)ccc31)[C@H](c1ccc(O)cc1)N1[C@H](c3ccccc3)[C@H](c3ccccc3)OC(=O)[C@H]1[C@@H]2C(N)=O	composite z-score	1.04
N#Cc1ccc(NN2C(C(O)c3ccc([N+](=O)[O-])cc3)C=CC3C(=O)N(c4ccccc4)C(=O)C32)cc1 (centres undefined)	composite z-score	0.323
CCOC(=O)C1=C[C@@H](C(C)C)N(S(=O)(=O)c2ccc(C)cc2)[C@H]1c1ccc(C(C)C)cc1	composite z-score	1.58
O=C/C=C/c1ccc(Cl)cc1	composite z-score	-0.359

For record CC1=C2[C@@H](CCc3ccccc3)OB(O)C[C@@H]2n2c(=O)n(-c3ccccc3)c(=O)n2C1 the listed composite z-score is 0.156

For record CCOC(=O)C[C@H]1[C@H](OC(=O)c2ccc(-c3ccccc3)cc2)[C@@H](NC(=O)Cc2ccc(OC)cc2)c2cc(OCCCO)ccc2N1C(=O)c1ccc2ccccc2n1 the listed composite z-score is 0.8

For record O=C1N(CCS(=O)(=O)c2ccccc2)c2ccccc2C[C@@]12COC(c1ccc(OCCCO)cc1)=N2 the listed composite z-score is 0.906

For record O=C1O[C@H](c2ccccc2)[C@H](c2ccccc2)N2[C@H]1[C@@H](C(=O)O)[C@]1(C(=O)Nc3ccc(C#CC4=CCCCC4)cc31)[C@H]2c1ccc(OCCO)cc1 the listed composite z-score is 1.22

For record O=C1OCCC=C[C@H]2OC34C=CCN(Cc5ccccc5)C(=O)[C@H]3N(CCCCCO)C(=O)[C@@H]4C12 (some centres undefined) the listed composite z-score is -0.636

* * *

Recorded composite z-score values for a group of molecules are listed next.
method notes: binders of probe aFST on microarray, primary screen, stem cell growth factor project, biochemical, small-molecule microarray, fluorescence 635/667 (AID 1086);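 further: score merges 667 nm fluorescence with signal-to-noise of each printed compound spot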
condition: higher = more signal
The answer should be written as a number, with no unit following it.

For record C=C(COC)C(=O)CC[C@@H](OC(=O)c1cccnc1)c1ccc(CO)o1 the listed composite z-score is 0.0848

* * *

Recorded composite z-score values for a group of compounds are listed next.
method notes: small-molecule microarray binders of probe aEGFR, primary screen, biochemical, biotinylated probe, 635/667 nm fluorescence (AID 1097);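 further: probe is a biotinylated anti-EGFR antibody binding compounds printed on slides; score combines fluorescence near 667 nm and signal to noise of each spot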
condition: higher = more signal
The answer should be written as a number, with no unit following it.

Worked cases, answers included:
compound	composite z-score
N[C@@H](Cc1ccccc1)Cn1cc(-c2ccccc2)nn1	-0.0549
O=C1N(CCS(=O)(=O)c2ccccc2)Cc2ccccc2C[C@]12N=C(c1ccc(OCCCO)cc1)O[C@@H]2c1ccccc1	0.177
C=CC[C@@]1(C(=O)N2CCOCC2)N=C(c2ccc(OCCCO)cc2)O[C@@H]1c1ccccc1N=[N+]=[N-]	0.353
CC(C)(C)N1CC=CC23O[C@@H]4C=CCOC(=O)[C@@H]4[C@H]2C(=O)N(CCCCCO)[C@@H]3C1=O (some centres not stated)	-0.224

For record COCCOC(=O)N1C(=O)[C@@]2(c3ccccc31)[C@H](C(=O)NC[C@H](O)c1ccccc1)[C@H]1C(=O)O[C@H](c3ccccc3)[C@H](c3ccccc3)N1[C@@H]2c1ccc(OCCO)cc1 the listed composite z-score is -0.023

For record COC(=O)[C@@]1(Cc2ccc(OC)cc2)[C@H]2c3cc(C(=O)N4CCCC4)n(Cc4ccccn4)c3C[C@H]2CN1C(=O)c1ccccc1 the listed composite z-score is 0.155

For record CC(C)c1ccc(NN2C(C(O)c3cccc(O)c3)C=CC3C(=O)N(c4ccccc4)C(=O)C32)cc1 (configuration not stated) the listed composite z-score is -0.0053

* * *

Recorded z-score values for a group of compounds are listed next.
method notes: HepG2 cell viability effects, profiling panel, calcein-AM fluorescence, 48 h, basal (AID 1164); further: test concentration not given here
condition: higher = more signal
The answer should be written as a number, with no unit following it.

Worked cases, answers included:
compound	readout type	recorded number
COCC1=C2[C@@H](CCc3ccccc3)OB(O)C[C@@H]2[C@@H]2C(=O)N(Cc3ccccc3)C(=O)[C@@H]2C1	z-score	0.128
C=CCOC(=O)[C@@H]1[C@H]2C(=O)O[C@H](c3ccccc3)[C@H](c3ccccc3)N2[C@H](c2ccc(OCCOC(=O)[C@@H]3C[C@@H]4C(=O)NCC(=O)N4[C@@H]3c3cccc(OCCO)c3)cc2)[C@@]12C(=O)Nc1ccc(I)cc12	z-score	0.646
Cc1ccc(S[C@]2(C(=O)NCC(C)C)CC(=O)N(Cc3ccccc3)[C@@H]2c2ccc(CO)cc2I)cc1	z-score	0.38
C=CCNC(=O)[C@H]1[C@@H]2C(=O)O[C@@H](c3ccccc3)[C@@H](c3ccccc3)N2[C@@H](c2ccc(O)cc2)[C@]12C(=O)N(C(=O)OCCOC)c1ccc(C#CCCO)cc12	z-score	0.802
COCCCNC(=O)[C@@]1(CCC(=O)OC(C)(C)C)N=C(c2ccc(OCCCO)cc2)O[C@H]1c1ccccc1CN=[N+]=[N-]	z-score	-0.244
CCCC[C@@H]1C[C@H]1[C@@H](NC(=O)c1ccc(-c2ccccc2)cc1)c1ccc(-c2ccccc2)cc1	z-score	-0.997
COc1c(C)cc(-c2cc3c(c(-c4ccc(Oc5ccccc5)cc4)n2)[Si](C(C)C)(C(C)C)OC3)cc1C	z-score	0.285
CCCCCN1CC=CC23O[C@@H]4C=CCOC(=O)[C@@H]4[C@H]2C(=O)N(CCCO)[C@@H]3C1=O (stereo partly drawn)	z-score	-0.721

// moving on: another record for z-score
For record COc1ccc(CCN2C(=O)[C@@]3(Cc4ccccc42)c2ccccc2C(=O)N(Cc2ccccc2Cl)[C@H]3c2ccc(CO)cc2)cc1 the listed z-score is 0.589

* * *

method notes: E. coli acrAB mutant growth effects, primary screen, E. coli filamentation inducers, strain DRC39, OD650, 24 h (AID 1178);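 further: growth measured as culture turbidity by optical density at 650 nm; test concentration not given here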
condition: higher = more signal, called active from +8 up or from −8 down
readout type: z-score
The answer should be written as a number, with no unit following it.

Worked cases, answers included:
molecule	z-score
CC(C)N1CC=CC23O[C@@H]4C=CCOC(=O)[C@@H]4[C@H]2C(=O)N(CCO)[C@@H]3C1=O (some centres undefined)	0.173
CC(C)C(=C=CC[C@H](O)c1ccccc1OCCO)C[C@H](O)c1ccccn1	0.762
CC(=O)C1=CCC(c2ccccc2)N(S(=O)(=O)c2ccc(C)cc2)C1 (centres undefined)	0.422

// moving on: another record for z-score
For record CCOC(=O)C[C@H]1[C@H](OC(=O)c2ccccc2-c2ccccc2)[C@@H](NC(=O)c2ccc3ccccc3c2)c2cc(OCCCO)ccc2N1C(=O)c1ccc2ccccc2n1 the listed z-score is 0.672

* * *

Recorded composite z-score values for a group of molecules are listed next.
Test system: Inhibin beta A chain (activin A)
method notes: INHBA (activin A) binders on microarrays, primary screen, biochemical, small-molecule microarray, 635 nm fluorescence scan (AID 1107);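 further: mouse activin A protein probed at 4.33 µg/mL on printed slides; score merges bound-protein fluorescence near 667 nm with spot signal-to-noise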
condition: small-molecule microarray binding, higher = more signal

Worked cases, answers included:
molecule	readout type	result
C=CCC(OC(C)=O)[C@@H]1[C@@H](N(Cc2ccc(-c3ccccc3)cc2)C(=O)Cc2ccc(F)cc2)c2cc(OCCCO)ccc2N1C(=O)c1ccc2ccccc2n1 (some centres not stated)	composite z-score	1.27
CCN(CC)c1ccc(N2CC=CC34O[C@@H]5C=CCCOC(=O)C5[C@H]3C(=O)N(CCCCCO)[C@@H]4C2=O)cc1 (some centres not stated)	composite z-score	1.52

For record COC(=O)[C@]1(Cc2ccccc2N=[N+]=[N-])N=C(c2ccc(OCCCO)cc2)O[C@@H]1c1ccccc1N=[N+]=[N-] the listed composite z-score is 0.755

For record O=C/C=C/c1ccc2c(c1)OCO2 the listed composite z-score is 1.25
